assay_remarks: viability loss with induced miR-34 in A549 – imaging, A549 dox-inducible miR-34, nuclei and caspase counts, primary screen (AID 1347080)
experimental_parameters: A549 miR-34 inducible, Hoechst nuclei count, 48 h; measured here: total cells with miR-34 induction; stronger effect = lower value
# Satisfied = cell count below 8000 (exclusive); Not satisfied = cell count at/above 8000

Consider the worked cases shown below.
[
  {
    "compound": "COc1c(N2CC3CCCNC3C2)c(F)cc2c(=O)c(C(=O)O)cn(C3CC3)c12 (stereo unspecified)",
    "class_name": "Not satisfied"
  },
  {
    "compound": "NCCC(=O)NCCc1cnc[nH]1",
    "class_name": "Not satisfied"
  },
  {
    "compound": "CON=C(C(=O)NC1C(=O)N2C(C(=O)OCOC(=O)C(C)(C)C)=C(C=Cc3scnc3C)CS[C@H]12)c1csc(N)n1 (stereo partly specified)",
    "class_name": "Satisfied"
  },
  {
    "compound": "CNc1nc(Nc2cnn(C3CCN(C4COC4)CC3F)c2Cl)ncc1C(F)(F)F (stereo unspecified)",
    "class_name": "Not satisfied"
  },
  {
    "compound": "Cc1nn(C)cc1-c1ccnc(N2CCCN(c3ccc(F)cc3)CC2)n1",
    "class_name": "Satisfied"
  }
]

Then there is this compound:
Request: API: query returns whether the compound falls strictly under 8000 in cell count. Query: `CCc1ccccc1-c1cc(C)nc(N)n1`
Result: Not satisfied

###

assay_remarks: drug combination growth inhibition, ovarian cancer – cell-based, oncology-focused library, rucaparib conditional, profiling panel (AID 1508598)
experimental_parameters: patient-derived ovarian cancer cells, CellTiter-Glo viability, 144 h; at 0.313 µM; OCI-P5x cells; without rucaparib
Active and inactive are the calls of the source.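 The calls were made as follows: active = normalized viability below 100% at a tested concentration; inactive = the rest.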
Write down the outcome that applies. Available outcomes: active, inactive

[
  {
    "compound": "O=C(/C=C/c1ccc2ccccc2n1)c1ccncc1",
    "class_name": "active"
  },
  {
    "compound": "C[C@]12CC[C@H]3c4ccc(O)cc4CC[C@H]3[C@@H]1CC[C@H]2O",
    "class_name": "inactive"
  }
]

Request: I'd appreciate the recorded outcome for `Cc1ccc(NC(=O)c2ccc(CN3CCN(C)CC3)cc2)cc1Nc1nc(-c2cccnc2)cs1` from this test.
Result: active

Request: Next compound: `C=C1/C(=C/C=C2\CCC[C@@]3(C)[C@H]2CC[C@H]3[C@H](C)/C=C/[C@@H](C)C(C)C)C[C@H](O)C[C@@H]1O`
Result: inactive

Request: Next compound: CC[C@]1(O)C[C@@H]2CN(CCc3c([nH]c4ccccc34)[C@@](C(=O)OC)(c3cc4c(cc3OC)N(C=O)[C@@H]3C45CCN4CC=C[C@](CC)([C@H]45)[C@H](OC(C)=O)[C@]3(O)C(=O)OC)C2)C1 (stereo partly specified)
Result: active

###

assay_remarks: liver-stage malaria parasite load reduction – cell-based, known kinase inhibitor set, luminescence, hepatoma host viability (AID 624392);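 also: infected cells incubated roughly two days before readout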
experimental_parameters: Plasmodium liver stage in hepatoma cells, luciferase luminescence, concentration not given here; stronger effect = lower value
readout: parasite % of control (%)
Field: numeric (%). Do not append units.

[
  {
    "compound": "NC(=O)c1cccc(Nc2nccc(Nc3cccc4[nH]ncc34)n2)c1",
    "recorded_number": 429
  }
]

Request: Dear colleague, I am looking for the recorded parasite % of control of the following compound: CCN1CCN(Cc2ccc(NC(=O)c3ccc(C)c(NC(=O)CC4NC(=O)C(Cc5ccccc5)NC4=O)c3)cc2C(F)(F)F)CC1 (centres undefined)
Result: 114

Request: Next compound: `CCN1CCN(Cc2ccc(NC(=O)c3cc(NC(=O)c4cc5cccc(OC)c5o4)cc(OC)c3)cc2C(F)(F)F)CC1`
Result: 89.9

Request: Next compound: `C=CC(=O)Nc1ccc(Nc2ccnc(Nc3ccc(N4CCN(C)CC4)cc3)n2)cc1`
Result: 124

###

Measured inhibition by item
assay_remarks: growth inhibition, single agents and combos, HTB85, cell-based, BGB or cisplatin IC20 combos, synergistic combos for chromothripsis tumors (AID 1671453);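 also: cells exposed for 96 hours before readout; 0% = vehicle DMSO and 100% = high DMSO killing control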
experimental_parameters: HTB85 osteosarcoma cells, drug combinations, measured here: with BGB IC20, at 5 µM, stronger effect = higher value
Field: numeric (%). Do not append units.

Here's what some known entries look like.
[
  {
    "molecule": "Nc1ccccc1NC(=O)c1cnccn1",
    "readout": "inhibition",
    "recorded_number": 4.3
  },
  {
    "molecule": "Cc1cc(C#N)cc(C)c1Oc1nc(Nc2ccc(C#N)cc2)nc(N)c1Br",
    "readout": "inhibition",
    "recorded_number": -34.8
  },
  {
    "molecule": "C=CC1=C(C)C2=CC3=NC(=C(CC(=O)O)C4=NC(=C(C)C4=C(O)O)C=c4[nH]c(c(C)c4CC)=CC1=N2)C(CCC(=O)O)C3C (stereo not drawn)",
    "readout": "inhibition",
    "recorded_number": -11.5
  },
  {
    "molecule": "C=C1C(=O)O[C@@H]2C=C(C)CCC=C(C)CC[C@@H]12",
    "readout": "inhibition",
    "recorded_number": 51.6
  },
  {
    "molecule": "N#Cc1ccc(OC2CCC(NC(=O)CCSc3nc4ccccc4c(=O)[nH]3)CC2)cc1 (stereo not drawn)",
    "readout": "inhibition",
    "recorded_number": -9.23
  },
  {
    "molecule": "Cc1cc(C)c(Nc2ccnc(Nc3ccc(C#N)cc3)n2)c(C)c1",
    "readout": "inhibition",
    "recorded_number": 40.8
  }
]

Request: Dear colleague, I am looking for the recorded inhibition of the following molecule: CC1CN(c2c(F)c(N)c3c(=O)c(C(=O)O)cn(C4CC4)c3c2F)CC(C)N1 (stereo not drawn)
Result: 3.84

Request: Next molecule: NC(=O)c1cccc2[nH]c(-c3ccc(C4CCCN4)cc3F)nc12 (stereo not drawn)
Result: 37.8

Request: Next molecule: `C[C@@H]1O[C@@H](O[C@@H]2[C@@H](O)[C@H](OCCc3ccc(O)c(O)c3)O[C@H](CO)[C@H]2OC(=O)C=Cc2ccc(O)c(O)c2)[C@H](O)[C@H](O)[C@H]1O`
Result: -2.54

###

assay_remarks: growth inhibition, single agents and combos, HTB85, cell-based, BGB or cisplatin IC20 combos, synergistic combos for chromothripsis tumors (AID 1671453);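 also: cells exposed for 96 hours before readout; 0% = vehicle DMSO and 100% = high DMSO killing control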
experimental_parameters: HTB85 osteosarcoma cells, drug combinations, single agent, at 5 µM, stronger effect = higher value
readout: inhibition (%)
Field: numeric (%). Do not append units.

Here's what some known entries look like.
[
  {
    "compound": "CC(C)OC(=O)[C@H](C)NP(=O)(OC[C@H]1O[C@@H](n2ccc(=O)[nH]c2=O)C(C)(F)[C@@H]1O)Oc1ccccc1 (stereo not given in full)",
    "unit_tag": "%",
    "inhibition": 9.61
  },
  {
    "compound": "CC=C1NC(=O)C2CSSCCC=CC(CC(=O)NC(C(C)C)C(=O)N2)OC(=O)C(C(C)C)NC1=O (stereo not given)",
    "unit_tag": "%",
    "inhibition": 99.9
  },
  {
    "compound": "C[n+]1ccc(-c2c3nc(c(-c4cc[n+](C)cc4)c4ccc([nH]4)c(-c4cc[n+](C)cc4)c4nc(c(-c5cc[n+](C)cc5)c5ccc2[nH]5)C=C4)C=C3)cc1",
    "unit_tag": "%",
    "inhibition": -24.3
  }
]

Request: Dear colleague, I am looking for the recorded inhibition of the following compound: `O=C(O)c1cc2cccc([N+](=O)[O-])c2[nH]1`
Result: -17.2

Request: Next compound: C=CC1=C(C)C2=CC3=NC(=C(CC(=O)O)C4=NC(=C(C)C4=C(O)O)C=c4[nH]c(c(C)c4CC)=CC1=N2)C(CCC(=O)O)C3C (stereo not given)
Result: 1.12

###

assay_remarks: viability loss with induced miR-34 in A549 – imaging, A549 dox-inducible miR-34, nuclei and caspase counts, primary screen (AID 1347080)
experimental_parameters: A549 miR-34 inducible, Hoechst nuclei count, 48 h; measured here: relative caspase fold change +Dox/-Dox
Rule: Condition met for fold change not less than 1, Condition not met for anything less.

[
  {
    "compound": "CN(C)C(=O)Nc1cccc(-c2ccc(N(C)C)cc2)c1",
    "class_name": "Condition not met"
  }
]

Request: Answer whether fold change of `C[C@]12CC[C@@H]3c4ccc(OS(=O)(=O)O)cc4CC[C@H]3[C@@H]1CCC2=O` is greater than or equal to 1.
Result: Condition not met

Request: Next compound: CCCCC/C=C\C/C=C\CC1OC1C/C=C\CCCC(=O)O (configuration not stated)
Result: Condition met

###

Measured cell count by item
assay_remarks: viability loss with induced miR-34 in A549 – imaging, A549 dox-inducible miR-34, nuclei and caspase counts, primary screen (AID 1347080)
experimental_parameters: A549 miR-34 inducible, Hoechst nuclei count, 48 h; measured here: total cells without miR-34 induction
Just the number, please, no unit attached.

Here's what some known entries look like.
[
  {
    "compound": "COc1cc(F)c(F)c(Nc2ccc(I)cc2F)c1NS(=O)(=O)C1(CC(O)CO)CC1 (centres undefined)",
    "cell count": 3220
  },
  {
    "compound": "CCOC(=O)[C@H](CCc1ccccc1)N[C@@H](C)C(=O)N1C(C(=O)O)C[C@@H]2CCC[C@@H]21 (some centres undefined)",
    "cell count": 10100
  },
  {
    "compound": "OCC1O[C@H]([S-])[C@@H](O)C(O)[C@@H]1O.[Au+] (some centres undefined)",
    "cell count": 7180
  }
]

Request: Dear colleague, I am looking for the recorded cell count of the following compound: COC(=O)C1C(OC)C(OC(=O)c2cc(OC)c(OC)c(OC)c2)C[C@@H]2CN3CCc4c([nH]c5cc(OC)ccc45)[C@H]3C[C@H]12 (some centres undefined)
Result: 7770
